Values were extracted from patent US20260116991A1.

# subject.of.test: biotinylated labeled human GPC3 protein (produced in-house) (human, UniProt P51654 25-559, limits assumed, biotinylated (Dojindo, Cat. No. LK03); sites not stated)
# procedure.summary: ELISA, biotinylated human GPC3 protein
quantity.kind: OD450 at 0.004 nM (OD450)
Dear colleague, please return just the value in OD450, with no unit written.

query: Looking for the measured OD450 at 0.004 nM of hAb001H1L1 (antibody, human IgG1, V domains shown, Humanized F2.169.2; VH H1 + VL L1; expressed as human IgG1) VH: EVQLVESGGGLVQPGGSLRLSCAASGFSFNTNAMNWVRQAPGKGLEWVGRIRSKSNNYATYYADSVKDRFTISRDDSKNSLYLQMNSLKTEDTAVYYCVRDGYYVLFAYWGQGTLVTVSS VL: DIVMTQTPLSLPVTPGEPASISCRFSQSIVNSNGNTYLEWFLQKPGQSPQLLIYKVSNRFSGVPDRFSGSGSGTDFTLKISRVEAEDVGVYYCFQGSHVPFTFGQGTKLEIK , can you help?
result: 0.341

query: What would you report for hAb003LH2L1 (antibody, human IgG1, V domains shown, Humanized F2.154.1; VH H2 + VL L1; expressed as human IgG1) VH: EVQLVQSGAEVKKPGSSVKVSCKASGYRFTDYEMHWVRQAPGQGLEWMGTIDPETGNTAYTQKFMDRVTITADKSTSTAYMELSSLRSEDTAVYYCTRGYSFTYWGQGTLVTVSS VL: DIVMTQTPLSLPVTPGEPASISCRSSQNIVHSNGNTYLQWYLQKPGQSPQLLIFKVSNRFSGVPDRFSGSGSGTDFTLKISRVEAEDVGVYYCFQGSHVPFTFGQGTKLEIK ?
result: 0.376
